All figures here come from a melting point compilation (Tetko et al.; mined from patent text by program, amines drawn as free bases though some values may be those of a salt).

{"Compound": "COc1cccc2c1C(=O)c1c(O)c3c(c(O)c1C2=O)CC(O)(C(C)=O)CC3O (centres undefined)", "melting point": "217 to 221 °C"}
{"Compound": "CCOC(=O)c1nnc2ccc(NC3=CC(=O)CC(C)(C)C3)cc2c1O", "melting point": "274 °C"}
{"Compound": "O=C1Nc2ccccc2N(C(=O)CN2CCCCC2CN2CCCCC2)c2ccccc21 (centres undefined)", "melting point": "220 to 221 °C"}
{"Compound": "CC=NN(C(=O)c1ccc(C)cc1)c1ccc2c(c1)OCCO2", "melting point": "121 to 123 °C"}
{"Compound": "O=S(=O)(c1ccc(C(F)(F)F)cc1)N1CCCC1c1ccc(F)cc1 (racemic)", "melting point": "85 °C"}
{"Compound": "COc1cccc(CC(=O)O)c1OCCCc1cn(-c2ccc(C(F)(F)F)cn2)nc1C1CCCCC1", "melting point": "140 to 141 °C"}
{"Compound": "CC1(C)Oc2ccc(-c3c(N)c(=O)c3=O)cc2[C@@H](N2Cc3ccccc3C2=O)[C@@H]1O (relative stereo)", "melting point": "> 250 °C"}
{"Compound": "CCCc1nc2c(N)nc3ccc(-c4cccc(NC(C)=O)c4)cc3c2s1", "melting point": "242 to 245 °C"}
{"Compound": "CC1=C(C#N)C(c2cccc([N+](=O)[O-])c2)C2=C(CCCC2=O)N1 (centres undefined)", "melting point": "214 to 216 °C"}
{"Compound": "Nc1ccccc1SSc1ccccc1N", "melting point": "88 to 89 °C"}
{"Compound": "Cc1cc(O)c(S(C)(=O)=O)cc1C(=O)N=C(N)N", "melting point": "> 260 °C"}
{"Compound": "Cc1ccc2cccc(OCc3c(Cl)ccc(C=O)c3Cl)c2n1", "melting point": "184 to 186 °C"}
{"Compound": "COc1ccc(S(=O)(=O)N2CCc3cccc(-c4ccc(Cl)cc4)c32)cc1", "melting point": "177 to 178 °C"}
{"Compound": "COc1cccc(C(=O)Nc2nnn[nH]2)c1N", "melting point": "268 to 269 °C"}
{"Compound": "Nc1ncnc2c1ncn2Cc1nc2cccc(Cl)c2c(=O)n1-c1ccccc1F", "melting point": "296 °C"}
{"Compound": "CCOC(=O)C(=CNc1cnsn1)C(=O)c1cc(F)c(F)cc1F", "melting point": "117 to 118 °C"}
{"Compound": "COc1cccc(C2CSc3ccccc3NC2=O)c1 (centres undefined)", "melting point": "198 °C"}
{"Compound": "COC(=O)c1ccc(-c2cccc(OCc3ccc(COC(=O)c4ccccc4)c(COC(=O)c4ccccc4)c3)c2)cc1", "melting point": "71 to 72 °C"}
{"Compound": "CC(C)n1nc(-c2c(-c3ccccc3)nn3c(N)cccc23)ccc1=O", "melting point": "218 to 219 °C"}

====

Below is a list of entries, each paired with its recorded melting point value.

{"Compound": "Cc1cc2oc(C#N)cc(=O)c2c(C)c1Cl", "melting point": "142 to 143 °C"}
{"Compound": "O=C1CCC(c2cccc(C(F)(F)F)c2)=NN1", "melting point": "211 to 214 °C"}
{"Compound": "O=C(c1ccc(Cl)cc1)c1ccc(CSC(F)(F)F)cc1", "melting point": "63 to 65 °C"}
{"Compound": "CN(C)c1cccc2c1C(=O)NS2(=O)=O", "melting point": "228 to 229 °C"}
{"Compound": "O=C(Oc1ccccc1)c1ccc(Oc2ccc([N+](=O)[O-])cc2)cc1O", "melting point": "118 to 120 °C"}
{"Compound": "CCCCCS(=O)(=O)NC(=O)CCc1ccc(OCCC2(C)OCCO2)cc1Oc1ncc(C(F)(F)F)cc1Cl", "melting point": "96.5 to 97.5 °C"}
{"Compound": "Cc1ccc2oc(NC(CC3CCCCC3)c3ccccn3)nc2c1 (stereo not given)", "melting point": "80 to 86 °C"}
{"Compound": "COc1ccc(C(=O)Cc2cc(OC)ccc2OC)c(Br)c1", "melting point": "76 to 79 °C"}
{"Compound": "O=C(O)c1ccc2ccc(-c3ccccc3)cc2c1", "melting point": "244 to 245 °C"}
{"Compound": "Cc1ccc(NC(=O)NCCN2CCN=C2c2ccccc2Cl)cc1", "melting point": "108 to 111 °C"}

====

Below is a list of entries, each paired with its recorded melting point value.
Quantity: melting point

{"Compound": "O=Cc1ccc(N2C[C@H](CN3C(=O)c4ccccc4C3=O)OC2=O)cc1F", "Quantity": "melting point", "Result": "167 to 169 °C"}
{"Compound": "O=S1CCOCC1c1cccnc1 (stereo not given)", "Quantity": "melting point", "Result": "74 to 76 °C"}
{"Compound": "OC(CCl)CNC(c1ccccc1)c1ccccc1 (stereo not given)", "Quantity": "melting point", "Result": "66 to 68 °C"}
{"Compound": "Nc1cc(F)ccc1C=C(Br)Br", "Quantity": "melting point", "Result": "72 to 73 °C"}
{"Compound": "CCCCCCCCCCCCCCCCC[C@@H](C[C@@H]1OC(=O)[C@H]1CC)OC(=O)[C@H](CC(C)C)NC(=O)OCc1ccccc1", "Quantity": "melting point", "Result": "44 to 47 °C"}
{"Compound": "Cc1ccc(CCC(C)NCC(O)c2cc3ccccc3o2)cc1 (stereo not given)", "Quantity": "melting point", "Result": "83 to 84 °C"}
{"Compound": "CCc1nc(N)nc(N)c1-c1ccc(N(C)Cc2ccc(C(=O)NC)cc2)c([N+](=O)[O-])c1", "Quantity": "melting point", "Result": "235 to 237 °C"}
{"Compound": "CCCN1CCc2c(ccc3[nH]c(=O)c(=O)[nH]c23)C1", "Quantity": "melting point", "Result": "340 to 350 °C"}
{"Compound": "O=C(c1ccccc1)N1CCOC(CCOS(=O)(=O)c2ccccc2)(c2ccc(F)c(F)c2)C1 (single isomer, unassigned; (+))", "Quantity": "melting point", "Result": "82.8 °C"}
{"Compound": "O=C(NCCCn1cncn1)Nc1cccc(C(F)(F)F)c1", "Quantity": "melting point", "Result": "97 to 99 °C"}

====

Below is a list of entries, each paired with its recorded melting point value.

{"Molecule": "Cc1cc(NS(=O)(=O)c2ccc(NCNc3ccc(S(=O)(=O)Nc4cc(C)on4)cc3)cc2)no1", "melting point": "180 to 188 °C"}
{"Molecule": "COC(=O)C1=Cc2cc(-c3ccc(F)cc3)ccc2S(=O)(=O)CC1", "melting point": "180 to 183 °C"}
{"Molecule": "CC(=O)Nc1ccc2c(c1)S(=O)(=O)N=C(NC(C)C)N2", "melting point": "260 to 262 °C"}
{"Molecule": "Nc1nccc2oc(I)cc12", "melting point": "170 to 173 °C"}
{"Molecule": "CCCCCCCCc1ccc(CCC(CCOC(C)=O)(CCOC(C)=O)NC(C)=O)cc1", "melting point": "57 to 59 °C"}
{"Molecule": "CCN(CC)CCOc1ccc(-c2sc3ccccc3c2C(=O)c2cc(C)cc(C)c2)cc1", "melting point": "138 to 142 °C"}
{"Molecule": "Cn1nc(-c2ccc([N+](=O)[O-])o2)c2c(Cl)ncnc21", "melting point": "195 °C"}
{"Molecule": "N#Cc1ccc(CBr)c([N+](=O)[O-])c1", "melting point": "85 to 89 °C"}
{"Molecule": "O=c1oc(-c2cccc(C(F)(F)F)c2)nc2cccc(Cl)c12", "melting point": "116 to 120 °C"}
{"Molecule": "CNc1cc(-n2cc(C(=O)O)c(=O)c3cc(F)c(NC)c(C)c32)c(F)cc1F", "melting point": "220 to 222 °C"}
{"Molecule": "O=C(CCCCCCCCC(=O)CC(=O)c1ccccc1)CC(=O)c1ccccc1", "melting point": "108 to 111 °C"}
{"Molecule": "CC(=O)c1ccc(C2=C(c3ccc(S(C)(=O)=O)cc3)OC3(CCCC3)C2=O)cc1", "melting point": "126 to 130 °C"}
{"Molecule": "CC1(C)CC(OC(=O)c2ccccc2)CC(C)(C)N1OC(N)=O", "melting point": "148 to 149 °C"}
{"Molecule": "Cc1nc2c(n1C)CCCC2=O", "melting point": "98.1 °C"}
{"Molecule": "O=Cc1c2n(c3ccncc13)CCC2", "melting point": "150 to 151 °C"}
{"Molecule": "COc1ccc2sc(=O)n(C(C)=O)c2c1", "melting point": "112 to 113 °C"}
{"Molecule": "CCC(=O)NC1Cc2cccc3c2N(CCC3)C1=O (configuration not stated)", "melting point": "149 to 152 °C"}
{"Molecule": "COc1ccc(O[C@@H]2CCNC[C@H]2O)c(Br)c1 (relative stereo)", "melting point": "132 to 135 °C"}
{"Molecule": "CCc1noc(-c2ncn(-c3cccc(Oc4ccc([N+](=O)[O-])cc4)c3)c2COC)n1", "melting point": "126 to 127 °C"}
{"Molecule": "Cc1c(C)c2c(c(C)c1NCc1ccccc1)C(c1ccccc1)CO2 (configuration not stated)", "melting point": "107 to 108 °C"}
{"Molecule": "O=C1c2ccccc2C(=O)N1[C@H]1C=C[C@@H](O)CC1 (racemic)", "melting point": "126 to 129 °C"}
{"Molecule": "CC1=NNC(=O)C1(C)Cl (configuration not stated)", "melting point": "56 °C"}
